The reported numbers originate from PubChem BioAssay.

- assay explanation: blood-stage malaria parasite viability loss – strain 3D7, DAPI fluorescence, 100 nL, primary screen (AID 1184);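 also: parasites grown inside human red blood cells in medium with human serum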
- experimental parameters: P. falciparum 3D7 growth, 3 d, higher = more signal
Please use class 1 whenever z-score is not below -1, and class 0 whenever it is.

{"columns": ["smiles text", "assigned label"],
 "data": [
  ["C=CCOC(=O)[C@H]1[C@@H]2C(=O)O[C@@H](c3ccccc3)[C@@H](c3ccccc3)N2[C@@H](c2ccc(OCCOC(=O)[C@@H]3C[C@@H]4C(=O)NCC(=O)N4[C@@H]3c3ccc(O)cc3)cc2)[C@]12C(=O)Nc1ccc(I)cc12", "class 0"],
  ["C=CCOC(=O)[C@@H]1[C@H]2C(=O)O[C@H](c3ccccc3)[C@H](c3ccccc3)N2[C@H](c2ccc(OCCOC(=O)[C@H]3C[C@H]4C(=O)N[C@@H](CC(C)C)C(=O)N4[C@H]3c3cccc(OCCO)c3)cc2)[C@@]12C(=O)Nc1ccc(I)cc12", "class 0"],
  ["CC(C)C[C@@H]1NC(=O)[C@@H]2C[C@H](C(=O)NCCCCN(C)C)[C@H](c3ccc(O)cc3)N2C1=O", "class 1"],
  ["C=CCN1Cc2ccccc2C[C@@]2(COC(c3ccc(OCCCO)cc3)=N2)C1=O", "class 0"],
  ["O=C(NCC(F)(F)F)[C@@H]1c2ccccc2C(=O)N(Cc2ccccc2)[C@H]1c1ccc(CO)cc1", "class 1"],
  ["C/C=C/[C@H](CCn1cc([C@H](O)c2ccccc2)nn1)[Si](C)(C)c1ccc(OC)cc1", "class 1"]
]}

----------
Entries annotated with measured composite z-score
- assay system: Dickkopf-related protein 1 (Homo sapiens) (UniProt O94907)
- Sequence (O94907 whole entry, looked up): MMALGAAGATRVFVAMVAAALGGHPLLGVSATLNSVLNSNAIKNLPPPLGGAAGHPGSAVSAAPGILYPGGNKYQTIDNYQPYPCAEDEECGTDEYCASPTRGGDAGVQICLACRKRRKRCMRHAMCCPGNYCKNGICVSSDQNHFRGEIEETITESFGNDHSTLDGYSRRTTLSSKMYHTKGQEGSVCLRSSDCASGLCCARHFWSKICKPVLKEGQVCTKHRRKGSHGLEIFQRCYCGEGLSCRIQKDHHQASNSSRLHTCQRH
- assay explanation: small molecules binding DKK1 protein – biochemical, small-molecule microarray, 635 nm fluorescence scan, primary screen (AID 1106);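 also: score merges emission near 667 nm with signal to noise over three replicate slides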
- experimental parameters: higher = more signal
measurement name: composite z-score

{"columns": ["compound", "result"],
 "data": [
  ["C[N+](C)(C)CCCCNC(=O)[C@H]1C[C@H]2C(=O)N3CCC[C@H]3C(=O)N2[C@H]1c1ccc(O)cc1", 1.82],
  ["O=C1c2ccccc2[C@](Cc2ccccc2I)(C(=O)O)[C@H](c2ccc(CO)cc2)N1Cc1ccccc1C(F)(F)F", -0.376],
  ["Cc1ccc(S[C@]2(C(=O)NCCN3CCOCC3)CC(=O)N(C3CCCCC3)[C@@H]2c2ccc(CO)cc2)cc1", -0.55],
  ["CS(=O)(=O)CCOC(=O)C1=CC(c2ccc(CO)cc2)=CC(c2cccs2)N(Cc2cccc(OC(F)(F)F)c2)C=C1C(=O)OCCS(C)(=O)=O (stereo unspecified)", 0.353],
  ["[N-]=[N+]=Nc1ccccc1C[C@]1(C(=O)N2CCCCC2)N=C(c2ccc(OCCCO)cc2)O[C@H]1c1ccccc1N=[N+]=[N-]", -0.235],
  ["O=C1C[C@@](C(=O)O)(c2ccc([N+](=O)[O-])cc2)[C@@H](c2ccc(CO)cc2I)N1CC12CC3CC(CC(C3)C1)C2", -1.1],
  ["CCOC(=O)C[C@H]1[C@H](OC(=O)c2cc3ccccc3oc2=O)[C@@H](NC(=O)c2ccc3ccccc3c2)c2cc(OCCCO)ccc2N1C(=O)c1ccccc1", 0.486],
  ["COCCOC(=O)N1C(=O)[C@@]2(c3cc(C#CCC(C(=O)OC)C(=O)OC)ccc31)[C@H](c1ccccc1OCCO)N1[C@H](c3ccccc3)[C@H](c3ccccc3)OC(=O)[C@H]1[C@@H]2C(=O)Nc1nc2ccccc2s1", 0.785],
  ["O=C1O[C@@H](c2ccccc2)[C@@H](c2ccccc2)N2[C@@H](c3ccccc3OCCO)[C@]3(C(=O)Nc4ccc(C#CC5(O)CCCCCC5)cc43)[C@@H](C(=O)NC[C@H](O)c3ccccc3)[C@H]12", 0.283],
  ["CN1C(=O)C2C=CC(C(O)C=Cc3ccc([N+](=O)[O-])cc3)N(N3CCCCC3)C2C1=O (stereo unspecified)", 0.256],
  ["CC1CC/C=C\\[C@H]2OC34C=CCN(Cn5nnc6ccccc65)C(=O)[C@H]3N(CCCO)C(=O)[C@@H]4C2C(=O)O1 (stereo partly specified)", -1.6],
  ["CCOC(=O)C1=CC[C@@H](c2ccccc2)N(S(=O)(=O)c2ccc(C)cc2)[C@H]1c1ccc(C#N)cc1", -0.972],
  ["C=CCC(OC(C)=O)[C@@H]1[C@@H](N(Cc2cc3ccccc3o2)C(=O)c2ccc(-c3ccccc3)cc2)c2cc(OCCCO)ccc2N1C(=O)Cc1ccc2ccccc2c1 (stereo partly specified)", -0.251],
  ["O=C1C[C@@](C(=O)O)(c2ccc([N+](=O)[O-])cc2)[C@@H](c2ccc(CO)cc2I)N1C1CCCCC1", -0.605],
  ["CO[C@H]1O[C@H](CO)[C@@H](OC(=O)Nc2cccc(F)c2)[C@H](OC(=O)Nc2ccccc2-c2ccccc2)[C@@H]1OC(=O)Nc1ccccc1-c1ccccc1", 0.198],
  ["CN1C(=O)C2C=CC(C(O)C3=C[C@H]4C[C@@H](C3)C4(C)C)N(Nc3ccc([N+](=O)[O-])cc3[N+](=O)[O-])C2C1=O (stereo partly specified)", -0.446]
]}

----------
- Test system: Chordin-like protein 2 (CHRDL2)
- assay explanation: compounds binding chordin-like 2 – biochemical, small-molecule microarray, 635 nm fluorescence, primary screen (AID 1126);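 also: printed compound slides probed with Chrdl2 protein at 4 µg/mL for 1 h at 4 C; score merges 667 nm emission intensity with signal to noise over three replicate slides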
- experimental parameters: fluorescence 635 nm, higher = more signal
measurement name: composite z-score

{"columns": ["compound", "measurement name", "result number"],
 "data": [
  ["COc1ccc([Si](C)(C)[C@H]2[C@H](CCO)O[C@@]3(C(=O)N(Cc4ccccc4)c4ccc(N5C(=O)COc6ccccc65)cc43)[C@@H]2C)cc1", "composite z-score", -0.516],
  ["CN(C)CCCC[C@@H]1NC(=O)[C@H]2C[C@@H](C(=O)NCCCCCNC(=O)CS)[C@@H](c3ccc(O)cc3)N2C1=O", "composite z-score", -0.688],
  ["C=CCOC(=O)[C@@H]1[C@H]2C(=O)O[C@H](c3ccccc3)[C@H](c3ccccc3)N2[C@H](c2ccc(OCCOC(=O)[C@H]3C[C@H]4C(=O)N[C@@H](CCCC[N+](C)(C)C)C(=O)N4[C@H]3c3cccc(OCCO)c3)cc2)[C@@]12C(=O)Nc1ccc(I)cc12", "composite z-score", 1.19],
  ["COC(=O)[C@@]1(Cc2ccc(F)cc2)[C@H]2c3cc(C(=O)N(C)C)n(Cc4ccccn4)c3C[C@H]2CN1C(=O)c1ccccc1", "composite z-score", -0.552],
  ["C=C(CCCC)C(=O)CC[C@@H](OC(=O)c1ccccc1-c1ccccc1C(=O)O)c1ccc(CO)o1", "composite z-score", 0.593],
  ["CCOC(=O)C[C@H]1[C@H](OC(=O)c2ccc(C(=O)c3ccccc3)cc2)[C@@H](NC(=O)c2ccc3ccccc3n2)c2cc(OCCCO)ccc2N1C(=O)c1ccc2ccccc2n1", "composite z-score", -0.0787],
  ["COc1ccc([Si](C)(C)[C@@H]2[C@@H](CC(=O)N3Cc4ccccc4C[C@H]3CO)O[C@]3(C(=O)N(Cc4cccc(N5C(=O)COc6ccccc65)c4)c4ccccc43)[C@H]2C)cc1", "composite z-score", 0.692],
  ["CCCCN1CC=CC23O[C@@H]4C=CCCOC(=O)C4[C@H]2C(=O)N(CCCO)[C@@H]3C1=O (stereo partly drawn)", "composite z-score", -0.304],
  ["COCCn1c(C(=O)N2CCCC2)cc2c1C[C@H]1CN(C(=O)c3ccccc3)[C@@](Cc3ccc(OC)cc3)(C(=O)OC)[C@@H]21", "composite z-score", -0.975],
  ["Cc1ccc(S[C@]2(C(=O)NCCN3CCOCC3)CC(=O)N(C3CCCCC3)[C@@H]2c2ccc(CO)cc2)cc1", "composite z-score", -0.179],
  ["C#C[C@H](O[Si](C#CCCCCCC)(C(C)C)C(C)C)c1ccccc1", "composite z-score", -0.0786],
  ["O=C1O[C@@H](c2ccccc2)[C@@H](c2ccccc2)N2[C@@H](c3ccccc3OCCO)[C@]3(C(=O)Nc4ccc(C#CC5(O)CCCCCC5)cc43)[C@@H](C(=O)NC[C@H](O)c3ccccc3)[C@H]12", "composite z-score", -0.134],
  ["CCOC(=O)C[C@H]1[C@H](OC(=O)c2cc3ccccc3oc2=O)[C@@H](NC(=O)c2ccc3ccccc3c2)c2cc(OCCCO)ccc2N1C(=O)c1ccccc1", "composite z-score", 0.234]
]}

----------
- assay system: Luciferin 4-monooxygenase (Photinus pyralis)
- assay explanation: inhibition of purified Photinus pyralis luciferase – biochemical, luminescence, purified enzyme, 2006 set, primary screen (AID 1141);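 also: cell-free assay with purified firefly luciferase at 100 ng per well in PBS; test concentration not given here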
- experimental parameters: purified firefly luciferase, SteadyGlo luminescence, 30 min; higher = more signal, called active from +8 up or from −8 down
Entries annotated with measured z-score
measurement name: z-score

{"columns": ["smiles text", "assay system", "result number"],
 "data": [
  ["O=C1O[C@@H](c2ccccc2)[C@@H](c2ccccc2)N2[C@@H](c3ccc(O)cc3)[C@]3(C(=O)Nc4ccc(C#CCCO)cc43)[C@@H](C(=O)N3CCCCCCC3)[C@H]12", "Luciferin 4-monooxygenase (Photinus pyralis)", 0.0848],
  ["CCCNC(=O)[C@@]1(C)c2ccccc2C(=O)N(Cc2ccc(OC(F)(F)F)cc2)[C@H]1c1ccc(CO)cc1", "Luciferin 4-monooxygenase (Photinus pyralis)", -0.166],
  ["C#C[C@H](O[Si](C#CCCCCCC)(C(C)C)C(C)C)c1ccccc1", "Luciferin 4-monooxygenase (Photinus pyralis)", 1.25],
  ["COCCCNC(=O)[C@@]1(Cc2ccccc2I)c2ccccc2C(=O)N(Cc2ccccc2)[C@H]1c1ccc(CO)cc1", "Luciferin 4-monooxygenase (Photinus pyralis)", -0.751],
  ["C=CCN1Cc2ccccc2C[C@]2(N=C(c3ccc(OCCCO)cc3)O[C@@H]2c2ccccc2)C1=O", "Luciferin 4-monooxygenase (Photinus pyralis)", -1.87],
  ["COCCOC(=O)N1C(=O)[C@@]2(c3cc(C#Cc4ccc(OC)cc4)ccc31)[C@H](c1ccc(O)cc1)N1[C@H](c3ccccc3)[C@H](c3ccccc3)OC(=O)[C@H]1[C@@H]2C(=O)N1CCN(c2ncccn2)CC1", "Luciferin 4-monooxygenase (Photinus pyralis)", 0.384],
  ["COCCOC(=O)N1C(=O)[C@@]2(c3cc(C#CC4(O)CCCCCC4)ccc31)[C@H](c1ccc(O)cc1)N1[C@H](c3ccccc3)[C@H](c3ccccc3)OC(=O)[C@H]1[C@@H]2C(=O)N1CCc2cc(OC)c(OC)cc2C1", "Luciferin 4-monooxygenase (Photinus pyralis)", 0.503],
  ["O=c1cccc(-c2ccccc2)o1", "Luciferin 4-monooxygenase (Photinus pyralis)", 0.616],
  ["C[N+](C)(C)CCCCNC(=O)[C@H]1C[C@H]2C(=O)N3CCC[C@H]3C(=O)N2[C@H]1c1ccc(O)cc1", "Luciferin 4-monooxygenase (Photinus pyralis)", -0.679],
  ["COCCOC(=O)N1C(=O)[C@@]2(c3cc(C#CC4=CCCCC4)ccc31)[C@H](C(=O)N1CCN(c3ncccn3)CC1)[C@H]1C(=O)O[C@H](c3ccccc3)[C@H](c3ccccc3)N1[C@@H]2c1ccc(OCCO)cc1", "Luciferin 4-monooxygenase (Photinus pyralis)", -1.03],
  ["Cc1ccc(N2C(=O)c3ccccc3[C@@H](C(=O)NC(C)C)[C@@H]2c2ccc(CO)cc2)nc1", "Luciferin 4-monooxygenase (Photinus pyralis)", 1.25],
  ["CC(=O)NCCCC[C@@H]1NC(=O)[C@@H]2C[C@H](C(=O)NCCCCCC[N+](C)(C)C)[C@H](c3cccc(OCCO)c3)N2C1=O", "Luciferin 4-monooxygenase (Photinus pyralis)", 0.364],
  ["C=C(/C(=C/C[C@@H](OC(=O)c1ccncc1)c1ccc(CO)o1)c1cc(C(=O)OC)ccc1OC)C(C)C", "Luciferin 4-monooxygenase (Photinus pyralis)", -4.24],
  ["CCOC(=O)C[C@H]1[C@H](OC(=O)c2ccc(C(=O)c3ccccc3)cc2)[C@@H](NC(=O)c2ccc3ccccc3n2)c2cc(OCCCO)ccc2N1C(=O)c1ccc2ccccc2n1", "Luciferin 4-monooxygenase (Photinus pyralis)", -0.857]
]}
